# System: AMO-1 (plasmacytom)
# Measurement protocol: CellTiter-Blue cell viability assay
# Assay type: cell-based
# Reported conditions: Homo sapiens, AMO1, 72 h, read-out: IC50 AMO-1 (cell viability)
Quantity measured: IC50 (µM)
Answers are plain numbers, in µM.

O=C(NO)c1ccc2nc(-c3cccc(Br)c3)[nH]c2c1; 7
CC(C)c1ccc(-c2nc3cc(C(=O)NO)ccc3n2C)cc1; 18

// input: 3 compounds below; output: IC50 for each
1. O=C(NO)c1ccc2nc(-c3ccc(-c4ccccc4)cc3)[nH]c2c1
2. CC(C)c1ccc(-c2nc3ccc(C(=O)NO)cc3[nH]2)cc1
3. CCCCc1ccc(-c2nc3ccc(C(=O)NO)cc3[nH]2)cc1

1: 1.7; 2: 2; 3: 3.7

Where do these numbers come from? They come from patent US10512634B2.
